Hey, just so you know, these numbers are from patent US20230382925A1.

target: CFTR (Homo sapiens); test: Membrane Potential Dye, Enteroid Assay B; type: cell-based
outcome-measure: Ent. B Max Activity (%)

{"molecule": "[H][C@]1(N2C(=O)c3cccc(c3)S(=O)(=O)Nc3nc(cc(-c4c(C)cccc4C)n3)OC[C@H]2CC2(C(F)(F)F)CC2)C[C@]2(C[C@@H](CO)C2)C1 (single isomer, unassigned) [Compound 134]", "reading": "+++ (+++ is >60%)"}
{"molecule": "Cc1cccc(C)c1-c1cc2nc(n1)NS(=O)(=O)c1cccc(c1)C(=O)N([C@H]1CC3(C[C@@H](CO)C3)C1)[C@H](CC(C)C)CO2 (stereo partly drawn) [Compound 337]", "reading": "+++ (+++ is >60%)"}
{"molecule": "CO[C@H]1C[C@@H](N2C(=O)c3cccc(c3)S(=O)(=O)Nc3nc(cc(-c4c(C)cccc4C)n3)OC[C@H]2CC(C)(C)C)C1 (single isomer, unassigned) [Compound 150]", "reading": "+++ (+++ is >60%)"}

* * *

molecular target: CFTR (Homo sapiens, UniProt P13569); test: Membrane Potential Dye, Enteroid Assay B; format: cell-based; conditions: read-out: Ent. B EC50
Sequence (P13569 with tags, fused parts or gaps DEL508-508): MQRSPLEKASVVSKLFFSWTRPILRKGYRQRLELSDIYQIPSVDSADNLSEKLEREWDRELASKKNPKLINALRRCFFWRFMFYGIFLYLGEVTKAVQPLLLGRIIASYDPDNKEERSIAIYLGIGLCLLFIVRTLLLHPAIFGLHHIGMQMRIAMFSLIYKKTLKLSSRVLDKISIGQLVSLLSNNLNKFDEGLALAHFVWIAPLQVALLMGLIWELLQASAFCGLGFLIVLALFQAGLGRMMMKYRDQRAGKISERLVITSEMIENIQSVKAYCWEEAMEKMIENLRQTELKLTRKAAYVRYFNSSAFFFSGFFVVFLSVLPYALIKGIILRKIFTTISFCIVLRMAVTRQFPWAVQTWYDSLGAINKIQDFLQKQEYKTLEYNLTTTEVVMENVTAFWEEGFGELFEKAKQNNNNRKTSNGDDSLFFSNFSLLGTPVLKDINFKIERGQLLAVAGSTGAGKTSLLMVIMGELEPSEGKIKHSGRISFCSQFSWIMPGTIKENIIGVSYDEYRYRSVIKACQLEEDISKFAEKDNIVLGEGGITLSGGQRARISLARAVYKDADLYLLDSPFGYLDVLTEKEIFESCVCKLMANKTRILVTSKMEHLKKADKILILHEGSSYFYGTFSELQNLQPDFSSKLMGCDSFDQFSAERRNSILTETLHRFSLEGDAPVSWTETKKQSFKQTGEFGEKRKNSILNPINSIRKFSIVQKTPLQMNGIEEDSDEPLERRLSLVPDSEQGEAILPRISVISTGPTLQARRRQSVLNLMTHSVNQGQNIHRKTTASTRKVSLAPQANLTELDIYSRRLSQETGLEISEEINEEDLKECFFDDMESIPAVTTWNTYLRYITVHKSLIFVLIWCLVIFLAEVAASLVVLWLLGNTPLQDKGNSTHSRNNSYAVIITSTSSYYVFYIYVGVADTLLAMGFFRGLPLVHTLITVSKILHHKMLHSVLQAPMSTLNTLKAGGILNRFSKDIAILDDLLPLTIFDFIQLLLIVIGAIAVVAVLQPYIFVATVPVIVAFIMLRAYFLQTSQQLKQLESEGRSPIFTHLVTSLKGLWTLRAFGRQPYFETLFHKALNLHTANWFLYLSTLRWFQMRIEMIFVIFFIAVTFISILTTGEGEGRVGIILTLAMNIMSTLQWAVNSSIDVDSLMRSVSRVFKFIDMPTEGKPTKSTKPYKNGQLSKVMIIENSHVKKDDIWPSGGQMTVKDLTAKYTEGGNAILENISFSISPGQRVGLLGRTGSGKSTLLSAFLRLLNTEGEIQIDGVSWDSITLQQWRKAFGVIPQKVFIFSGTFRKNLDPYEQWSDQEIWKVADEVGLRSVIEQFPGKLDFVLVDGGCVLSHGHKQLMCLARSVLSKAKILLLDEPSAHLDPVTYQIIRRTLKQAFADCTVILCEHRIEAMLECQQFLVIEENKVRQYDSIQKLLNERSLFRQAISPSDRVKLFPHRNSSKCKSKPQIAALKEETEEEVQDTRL
EC50 values for the compounds below.

{"compound": "COCCN1CCC2(CC1)CC(N1C(=O)c3cccc(c3)S(=O)(=O)Nc3nc(cc(-c4c(C)cccc4C)n3)OC[C@H]1CC(C)(C)C)C2", "reading": "< 1000 nM"}
{"compound": "Cc1cccc(C)c1-c1cc2nc(n1)NS(=O)(=O)c1cccc(c1)C(=O)N(C1CC3(CCN(C(=O)OC(C)C)CC3)C1)[C@H](CC(C)C)CO2", "reading": "< 1000 nM"}
{"compound": "Cc1cccc(C)c1-c1cc2nc(n1)NS(=O)(=O)c1cccc(c1)C(=O)N([C@H]1C[C@@H](N(C)C)C1)[C@H](CC(C)C)CO2", "reading": "< 1000 nM"}
{"compound": "CO[C@H]1C[C@@H](N2C(=O)c3cccc(c3)S(=O)(=O)Nc3nc(cc(-c4c(C)cccc4C)n3)OC[C@H]2CC(C)(C)C)C1 (single isomer, unassigned) [Compound 150]", "reading": "< 1000 nM"}
{"compound": "Cc1cccc(C)c1-c1cc2nc(n1)NS(=O)(=O)c1cccc(c1)C(=O)N(C1CN(C(=O)OCc3ccccc3)C1)[C@H](CC(C)C)CO2", "reading": "< 1000 nM"}

Q. Endpoint output: EC50 of `Cc1cccc(C)c1-c1cc2nc(n1)NS(=O)(=O)c1cccc(c1)C(=O)N(C1CN(C(=O)OC(C)(C)C)C1)[C@H](CC(C)C)CO2` . Value?
A. < 1000 nM

* * *

target: CFTR (Homo sapiens); test: Membrane Potential Dye, Enteroid Assay B; type: cell-based; details: Table 9
outcome-measure: Ent. B Max Activity (%)

Guide cases for Ent. B Max Activity (%), answers given:
{"molecule": "COCCNC1CC2(C1)CC(N1C(=O)c3cccc(c3)S(=O)(=O)Nc3nc(cc(-c4c(C)cccc4C)n3)OC[C@H]1CC(C)C)C2 (stereo in doubt) [Compound 287]", "reading": "+++ (+++ is >60%)"}
{"molecule": "Cc1cccc(C)c1-c1cc2nc(n1)NS(=O)(=O)c1cccc(c1)C(=O)N([C@H]1C[C@@H](N3CCC(OCC4CC4)CC3)C1)[C@H](CC(C)C)CO2 [Compound 386]", "reading": "+++ (+++ is >60%)"}
{"molecule": "COC(=O)N[C@H]1C[C@@H](N2C(=O)c3cccc(c3)S(=O)(=O)Nc3nc(cc(-c4c(C)cccc4C)n3)OC[C@H]2CC(C)(C)C)C1 (single isomer, unassigned) [Compound 168]", "reading": "+++ (+++ is >60%)"}
{"molecule": "Cc1cccc(C)c1-c1cc2nc(n1)NS(=O)(=O)c1cccc(c1)C(=O)N(C1CC(NCCC(C)C)C1)[C@H](CC(C)C)CO2 (some centres unmarked) [Compound 377]", "reading": "+++ (+++ is >60%)"}

Okay, next one:
Q. What does the data say about its Ent. B Max Activity (%)? Entry: COCC(=O)N1CCC2(CC1)CC(N1C(=O)c3cccc(c3)S(=O)(=O)Nc3nc(cc(-c4c(C)cccc4C)n3)OC[C@H]1CC(C)C)C2 [Compound 459]
A. +++ (+++ is >60%)
